Kindly supply the reported PBM binding z-score values for the records listed here.
- System: LXRb homodimer (NR concentration 270 nM)
- MEASUREMENT_DESCRIPTION: PBM binding z-score (relative to random genomic background probes); higher = stronger binding; sequences stand for … in GC…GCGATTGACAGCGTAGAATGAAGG
Give a plain numeric answer without units written out.

input: I'd like to know its PBM binding z-score. The sequence in question is ATCGAAAGGTCGAGGTGAGTAAAGAGAAAGGGAA
output: 0.664

input: What do you get for TCTTGTAGATCATAGGTTAAGAAAGCCGAAGCCT ?
output: 0.0364

input: What do you get for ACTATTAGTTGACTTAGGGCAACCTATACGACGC ?
output: 0.731

input: What do you get for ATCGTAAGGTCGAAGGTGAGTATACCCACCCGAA ?
output: 0.36

input: What do you get for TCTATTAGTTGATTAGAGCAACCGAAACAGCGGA ?
output: 0.361

input: What do you get for AGTCACAGTTCACTAGGTAACGTAAGATTCAGCT ?
output: 0.166

input: What do you get for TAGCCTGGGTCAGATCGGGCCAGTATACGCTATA ?
output: -0.84

input: What do you get for ATCGAAAGGTCGTAGGTGAGTATACCCACCCGAA ?
output: 0.812

input: What do you get for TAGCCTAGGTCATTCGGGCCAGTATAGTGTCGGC ?
output: 0.458

input: What do you get for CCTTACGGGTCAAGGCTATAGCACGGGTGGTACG ?
output: -0.119

input: What do you get for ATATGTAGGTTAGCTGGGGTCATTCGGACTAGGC ?
output: 1.58

input: What do you get for CCTACTGGGCCAAGGTCACTGATCAGTCAAAGCA ?
output: -0.518

* * *

- Tested on: PPARg:RXRa IVT, anti-PPARg (NR concentration 270 nM, RXRa partner concentration 90 nM)
- MEASUREMENT_DESCRIPTION: PBM binding z-score (relative to random genomic background probes); higher = stronger binding; sequences stand for … in GC…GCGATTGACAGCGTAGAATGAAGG
MEASURED_ATTRIBUTE: PBM binding z-score
Give a plain numeric answer without units written out.

input: Form: Entry = CCTTACGGGTCACTGACAGGTTATAACATTTGGA | System = PPARg:RXRa IVT, anti-PPARg (NR concentration 270 nM, RXRa partner concentration 90 nM) | PBM binding z-score = ____
output: 3.86

input: What do you get for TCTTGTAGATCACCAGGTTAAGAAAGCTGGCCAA ?
output: 1.98

input: What do you get for CCAGACAGGCGAGAAGGTAACTCAGCCTCGATTA ?
output: -0.816

input: What do you get for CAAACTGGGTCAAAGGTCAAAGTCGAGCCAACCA ?
output: 8.37

input: What do you get for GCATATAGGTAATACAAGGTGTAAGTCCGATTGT ?
output: 2.41

input: What do you get for GGACCGAGGGCATTCGAGTTGATAGCATGGCGAT ?
output: 0.267

input: What do you get for ACTAGCGGGCCAAGGGTCACTCAAGATTAGTCCG ?
output: 3.65

input: What do you get for ATCGAACGGTCGTGAGGTGAGTATACAGAAAGGC ?
output: 0.391

input: What do you get for ATCTCTAGGTAAAAGTTCAGTGACTCCCGAGGAT ?
output: 3.69

input: What do you get for CCTTACGGGTCACGAGGTAATAGCACGACGAGCG ?
output: 5.5

input: What do you get for ACTATTAGTTGACTTAGGGCACCCGATACGACGC ?
output: 0.339

input: What do you get for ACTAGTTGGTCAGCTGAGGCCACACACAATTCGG ?
output: 0.964

input: What do you get for ATCGTAAGGTCGAGGTGAGTATAGAGAAAGGGAA ?
output: 1.72

input: What do you get for TCAGAAAGGTGAAGGTAACTCAGGTACGCAGTCG ?
output: 2.93

input: What do you get for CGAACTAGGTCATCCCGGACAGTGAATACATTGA ?
output: 8.33

input: What do you get for CCTATTAGTTGACCTTAAGGGCAACCGAAGCTCG ?
output: 2.7

input: What do you get for GGAACGAGGGCAAAGTTGGTAGCATCTGTCGACG ?
output: 3.9

input: What do you get for GCGACTGGGGCCAAGCAGGTTACCATAAGGTTGG ?
output: -0.0452

input: What do you get for TTACCAAGGTGAAGCTCGTTGATCCCTCTGTAGA ?
output: 2.34

input: What do you get for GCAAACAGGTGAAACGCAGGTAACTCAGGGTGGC ?
output: 1.32

input: What do you get for ACTCGGAGGACAAAGGTCCGAGCTACGCCAGTGA ?
output: 0.313

input: What do you get for CCTTACGCGTCAAGGTTATAGCACGGGTGGTACG ?
output: -0.0236

input: What do you get for GCGACTTGGGCAAAGCAGGTTACCATAAGGTTGG ?
output: -0.245

input: What do you get for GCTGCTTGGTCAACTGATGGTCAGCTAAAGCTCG ?
output: 0.0173

input: What do you get for ACTCGGAGGAAAAAGGTCAGAGCTACGCCAGTGA ?
output: 1.1

input: What do you get for GCTCGTAGATCAAGGTTAAGAAAGACTAAGCTAA ?
output: -0.249

input: What do you get for CAAACTAGGTCAAGGTCAAAGCCGGTTTGTGCCA ?
output: 8.89

input: What do you get for GATACAGGGTCAGCTATAGGCCAGAGTATGGAAA ?
output: 2.31

input: What do you get for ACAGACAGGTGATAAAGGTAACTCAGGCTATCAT ?
output: 0.46

input: What do you get for CCTACTGGGCCGAAGGTCATTGATTCCAATGCTC ?
output: 5.21

input: What do you get for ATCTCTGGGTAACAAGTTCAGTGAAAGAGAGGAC ?
output: 2.94

input: What do you get for TAAATGAGGTTAAAGATCAGGGAACGTGGCGTCG ?
output: 4.36

input: What do you get for CCTACTGGGCCAGAAAGGTCATTGATGCCGATAA ?
output: 3.3

input: What do you get for AGAATCAGGTTAAGATCAGGGAAACAGAATACAT ?
output: 2.1

input: What do you get for CCAGAGAGGTGAAAGGTAACTCAGTCTGGTACGC ?
output: 4.05

input: What do you get for CCTTGGAGGACAGAAGGTCAGAGCTGTCCGCTTT ?
output: 1.17

input: What do you get for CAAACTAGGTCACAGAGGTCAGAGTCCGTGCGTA ?
output: 9.29

input: What do you get for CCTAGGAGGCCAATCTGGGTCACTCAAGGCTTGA ?
output: 5.21

input: What do you get for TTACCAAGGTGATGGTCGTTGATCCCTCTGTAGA ?
output: 1.23

input: What do you get for ACAGACAGGCGAGTGAAGGTAACTCAGCTGGACG ?
output: -0.121

input: What do you get for ATCTCTAGGTAAGACTTAGTTCAGTGAAGAACGC ?
output: 1.57

input: What do you get for TCTTGTAGATCAATAGAGGTTAAGCAAGTGCGCT ?
output: 1.19

input: What do you get for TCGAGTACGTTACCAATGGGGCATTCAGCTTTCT ?
output: -0.201

input: What do you get for ATCGAAAGCTCGAGGTGAGTATAGAGAAAGGGAA ?
output: 0.455

input: What do you get for CTACCAAGGTGAACAAGGTCGTAGATTACTATTC ?
output: 2.87

input: What do you get for GCGACTGGGGCAAAGAAGGTTACCATAAGGTTGG ?
output: 3.4

input: What do you get for TCGAGTAGGTTACCAATGGGGCATTCATCTTTCT ?
output: 2.75

input: What do you get for CAGACTGGGGCAAAGGTTACCATACTCAGTACGA ?
output: 6.11

input: What do you get for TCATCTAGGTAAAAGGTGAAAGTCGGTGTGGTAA ?
output: 5.73

input: What do you get for ATATGTAGGTTACATCCGGGTCATTGAGGCTATG ?
output: 7.27

input: What do you get for GCTGCTAGGTCAACTGATGGTAAGCTAAAGCTCG ?
output: 3.79

* * *

- System: RARg homodimer (NR concentration 270 nM)
- MEASUREMENT_DESCRIPTION: PBM binding z-score (relative to random genomic background probes); higher = stronger binding; sequences stand for … in GC…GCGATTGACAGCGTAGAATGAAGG
MEASURED_ATTRIBUTE: PBM binding z-score
Give a plain numeric answer without units written out.

input: I'd like to know its PBM binding z-score. The sequence in question is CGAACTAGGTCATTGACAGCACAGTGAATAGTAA
output: 4.03

input: What do you get for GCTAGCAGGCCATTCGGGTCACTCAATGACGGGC ?
output: 1.92

input: What do you get for TCTGCTATGTCAGTTGGTCAGCTAACGAGCTGCC ?
output: -0.134

input: What do you get for CACACTAGGTCACCGGAAGGTCAAAGTCCGCATG ?
output: 7.39

input: What do you get for CCTACTGGGCCACAGGTCATTGATTCCAATGCTC ?
output: 1.94

input: What do you get for CGTCCAAGGTCAATGCTAGGTCAGTGATAGCATT ?
output: 6.91

input: What do you get for CCTGCTAGGTCATGGTCATCTAATCTACAGTATG ?
output: 4.75

input: What do you get for TTACCAAGCTGAAGGTCGTTGATCCCTCTGTAGA ?
output: -0.231

input: What do you get for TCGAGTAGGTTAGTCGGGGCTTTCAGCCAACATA ?
output: -0.728

input: What do you get for TGAATGAGGTTAAAGATCAGGGATCGTGGCGTCG ?
output: 1.11

input: What do you get for AGAATGAGGTTAAGATCAGGGGAACAGAATACAT ?
output: 1.59

input: What do you get for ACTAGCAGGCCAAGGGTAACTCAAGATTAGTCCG ?
output: 0.734
